Origin of values: patent US20210301025A1

measurement.target: EGFR (form used in the assay not stated) (human, UniProt P00533 25-645, limits assumed)
assay.remarks: ELISA, NEM conjugate, 100 nM
endpoint: binding relative to P54AR4-83v2 parent (ratio)
Output spec: scalar in ratio, unitless text.

INSERT INTO results (binder, unit_of_measure, assay_value) VALUES
  ('P54AR4-83v2 D22C, NEM conjugate (designed binder, not shown: small tags and cut ends, N-ethyl maleimide (NEM) on Cys 22) LPAPKNLVVSEVTEDSARLSWCDPWAFYESFLIQYQESEKVGEAIVLTVPGSERSYDLTGLKPGTEYTVSIYGVHNVYKDTNMRGLPLSAIFTT', 'ratio', 1.02),
  ('P54AR4-83v2 Y78C, NEM conjugate (designed binder, not shown: small tags and cut ends, N-ethyl maleimide (NEM) on Cys 78) LPAPKNLVVSEVTEDSARLSWDDPWAFYESFLIQYQESEKVGEAIVLTVPGSERSYDLTGLKPGTEYTVSIYGVHNVCKDTNMRGLPLSAIFTT', 'ratio', 0.63),
  ('P54AR4-83v2 V8C, NEM conjugate (designed binder, not shown: small tags and cut ends, N-ethyl maleimide (NEM) on Cys 8) LPAPKNLCVSEVTEDSARLSWDDPWAFYESFLIQYQESEKVGEAIVLTVPGSERSYDLTGLKPGTEYTVSIYGVHNVYKDTNMRGLPLSAIFTT', 'ratio', 1.03);

The binder P54AR4-83v2 G42C, NEM conjugate (designed binder, not shown: small tags and cut ends, N-ethyl maleimide (NEM) on Cys 42) LPAPKNLVVSEVTEDSARLSWDDPWAFYESFLIQYQESEKVCEAIVLTVPGSERSYDLTGLKPGTEYTVSIYGVHNVYKDTNMRGLPLSAIFTT showed binding relative to P54AR4-83v2 parent equal to 0.99
